- System: CEM cells HIV-1 protection, formazan growth assay
- experiment_description: NCI AIDS Antiviral Assay
- cond: measured here: growth of uninfected CEM cells
- Method: The ability of compounds to protect human CEM cells from HIV-1 infection is measured as a screen for new compounds capable of inhibiting the HIV virus. Five concentrations of drug were tested on uninfected and infected cells and cell growth was measured using a soluble formazan assay. […] Compounds that provided at least 50% protection were retested. Compounds that provided at least 50% protection on retest were listed as moderately active. […]
Under this convention, 1 denotes IC50 strictly below 30 µM and 0 denotes IC50 at or above 30 µM.

Answered cases to consult:
molecule	assay_system	classification
CC(C)(C)OC(=O)NC12C3C4C1C1C2C3C41NC(=O)OC(C)(C)C (centres undefined)	CEM cells HIV-1 protection, formazan growth assay	0
CCOP(=O)(OCC)/C(C#N)=C/c1ccccc1O	CEM cells HIV-1 protection, formazan growth assay	0
O=C(O)CCCCCCCC(O)C(O)CCCCCCCC(=O)O (centres undefined)	CEM cells HIV-1 protection, formazan growth assay	0

Input line: For this molecule, is IC50 lower than 30 µM? "O=C(NC1CCCCC1)N1CCNC1=S"
Output line: 0

Input line: Ok, now "CO/C(N)=C(\C#N)N=Cc1cccnc1"
Output line: 0

Input line: Could you do the same for "COc1c(Br)cc(/C=C(\C#N)c2cccnc2)cc1Br" , please?
Output line: 1

Input line: Then "CN1BN(C)BN(C)B1" ?
Output line: 0

Input line: Query "Cc1sc2ccc3ccccc3c2[n+]1C" next
Output line: 0
